meta.source: paper PMC3052282

pIC50: −log10 of the molar value.
As a worked illustration, we turn to pIC50 data collected for DnaK-DnaJ (Escherichia coli).

SMI	pIC50
CCOC(=O)c1c(N)sc2c1CCN(C(C)=O)C2	< 3.30
Cc1cc(C(F)(F)F)c(C#N)c(SCC(=O)c2ccccc2)n1	< 3.30
COc1cc(C(=O)NS(=O)(=O)c2ccccc2C)ccc1Cc1cn(C)c2ccc(NC(=O)OC3CCCC3)cc12	4.43
CCCCCCn1c(N)c(C(=O)OCC)c2nc3ccccc3nc21	< 3.30
CCOC(=O)c1c(N)n(-c2ccccc2)c2nc3ccccc3nc12	< 3.30
